Test system: PRMT1 (protein arginine N-methyltransferase 1)
Test: small molecules binding arginine methyltransferase PRMT1 – biochemical, small-molecule microarray, 635 nm fluorescence, primary screen (AID 1088);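 also: binding of Prmt1 protein to compounds spotted on small-molecule microarray slides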
Conditions: higher = more signal
Give composite z-score for every item shown.
One number for each entry.

# example entries with known answers
[[record]]
molecule = "C=C(CCCC)/C(=C/C[C@H](OC(C)=O)c1cccc(OCCO)c1)c1cnc2ccccc2c1"
numeric_value = 0.12

[[record]]
molecule = "COc1ccc(NN2C(C(O)c3ccc(I)cc3)C=CC3C(=O)N(C4CCCCC4)C(=O)C32)cc1 (stereo not drawn)"
numeric_value = 1.55

[[record]]
molecule = "C[N+](C)(C)CCCCNC(=O)[C@H]1C[C@H]2C(=O)N[C@@H](Cc3ccccc3)C(=O)N2[C@H]1c1cccc(OCCO)c1"
numeric_value = 0.982

[[record]]
molecule = "[N-]=[N+]=NCc1ccccc1[C@@H]1OC(c2ccc(OCCCO)cc2)=N[C@]1(Cc1ccccc1N=[N+]=[N-])C(=O)O"
numeric_value = 1.48

[[record]]
molecule = "COC(=O)C(CC#Cc1ccc2c(c1)[C@]1(C(=O)N2)[C@H](c2ccc(OCCO)cc2)N2[C@H](c3ccccc3)[C@H](c3ccccc3)OC(=O)[C@H]2[C@@H]1C(=O)N1CCCCCCC1)C(=O)OC"
numeric_value = 1.54


Please give composite z-score for each item listed below.
1. N#Cc1ccc(-c2cccc(=O)o2)cc1
2. O=C1[C@H]2C=C(I)[C@H](C[C@@H]2c2ccccc2)[C@@]12CO2
3. Cc1ccc(S[C@]2(C(=O)NCC(F)(F)F)CC(=O)N(Cc3ccccc3C(F)(F)F)[C@@H]2c2ccc(CO)cc2)cc1

Result:
[1, 0.298, 0.895]

----------
Give composite z-score for every item shown.
Test system: PRMT1 (protein arginine N-methyltransferase 1)
Experiment: small molecules binding arginine methyltransferase PRMT1 – biochemical, small-molecule microarray, 635 nm fluorescence, primary screen (AID 1088);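 also: binding of Prmt1 protein to compounds spotted on small-molecule microarray slides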
Conditions: higher = more signal

# example entries with known answers
[[record]]
line_notation = "C=CCOC(=O)[C@H]1[C@@H]2C(=O)O[C@@H](c3ccccc3)[C@@H](c3ccccc3)N2[C@@H](c2ccc(OCCOC(=O)[C@@H]3C[C@@H]4C(=O)N[C@@H](CCCCNC(C)=O)C(=O)N4[C@@H]3c3cccc(OCCO)c3)cc2)[C@]12C(=O)Nc1ccccc12"
result = 1.54

[[record]]
line_notation = "C=CCOC(=O)[C@@H]1[C@H]2C(=O)O[C@H](c3ccccc3)[C@H](c3ccccc3)N2[C@H](c2ccc(OCCOC(=O)[C@H]3C[C@H]4C(=O)N5CCC[C@H]5C(=O)N4[C@H]3c3cccc(OCCO)c3)cc2)[C@@]12C(=O)Nc1ccc(I)cc12"
result = 1.53

[[record]]
line_notation = "COC(=O)C(CC#Cc1ccc2c(c1)[C@]1(C(=O)N2)[C@H](C(=O)NC[C@H](O)c2ccccc2)[C@H]2C(=O)O[C@H](c3ccccc3)[C@H](c3ccccc3)N2[C@@H]1c1ccccc1OCCO)C(=O)OC"
result = 1.54

[[record]]
line_notation = "CC(C)C(=C=CC[C@H](O)c1ccccc1OCCO)C[C@H](O)COCc1ccccc1"
result = 0.251


Now, please, on to the next compound.
Value of composite z-score reported for the compound COC(=O)[C@@]1(Cc2ccc(F)cc2)[C@H]2c3cc(C(=O)N(C)C)n(C)c3C[C@H]2CN1C(=O)c1ccccc1 is -0.97

----------
Assay: Pseudomonas biofilm growth suppression – PAO1 strain, BacTiter-Glo luminescence, LB-PBS, primary screen (AID 1144)
Settings: P. aeruginosa PAO1 biofilm, 12 h, higher = more signal
Measured attribute: z-score
Give bare numbers.

# example entries with known answers
[[record]]
line_notation = "CN(C)CCCNC(=O)[C@@]1(C)c2ccccc2C(=O)N(Cc2ccc(OC(F)(F)F)cc2)[C@H]1c1ccc(CO)cc1"
measured_attribute = "z-score"
numeric_value = -1.04

[[record]]
line_notation = "COCCOC(=O)N1C(=O)[C@@]2(c3cc(C#CCCO)ccc31)[C@H](C(N)=O)[C@H]1C(=O)O[C@H](c3ccccc3)[C@H](c3ccccc3)N1[C@@H]2c1ccccc1OCCO"
measured_attribute = "z-score"
numeric_value = 0.00875

[[record]]
line_notation = "NC(=O)NCC#Cc1ccc2c(c1)[C@]1(C(=O)N2)[C@H](c2ccc(OCCO)cc2)N2[C@H](c3ccccc3)[C@H](c3ccccc3)OC(=O)[C@H]2[C@@H]1C(=O)NC[C@H](O)c1ccccc1"
measured_attribute = "z-score"
numeric_value = 0.0532

[[record]]
line_notation = "COCCOC(=O)N1C(=O)[C@@]2(c3cc(C#CCNC(N)=O)ccc31)[C@H](C(=O)Nc1nc3ccccc3s1)[C@H]1C(=O)O[C@H](c3ccccc3)[C@H](c3ccccc3)N1[C@@H]2c1ccccc1OCCO"
measured_attribute = "z-score"
numeric_value = -0.264


Now, please, on to the next compound.
Value of z-score reported for the compound O=C1O[C@H](c2ccccc2)[C@H](c2ccccc2)N2[C@H]1[C@@H](C(=O)N1CCN(c3ncccn3)CC1)[C@]1(C(=O)Nc3ccc(C#CCCO)cc31)[C@H]2c1ccc(O)cc1 is -0.218

----------
Give composite z-score for every item shown.
Test system: Wnt5a (protein binding on small-molecule microarray)
Assay: small molecules binding Wnt5a protein – biophysical, small-molecule microarray, 635/667 nm fluorescence, primary screen (AID 1142);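 also: fluorescence read at 667 nm with signal to noise per printed feature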
Conditions: 635 nm fluorescence, higher = more signal
Numbers only.

[[record]]
molecule = "COc1ccc(C(O)C2C=CC3C(=O)N(c4ccccc4)C(=O)C3N2Nc2ccc(C#N)cc2)cc1OCc1ccccc1 (centres undefined)"
measured_attribute = "composite z-score"
numeric_value = 0.512

[[record]]
molecule = "COc1ccc([Si](C)(C)[C@H]2[C@H](CC(=O)N3Cc4ccccc4C[C@H]3CO)O[C@@]3(C(=O)N(C)c4c(Br)cc(C)cc43)[C@@H]2C)cc1"
measured_attribute = "composite z-score"
numeric_value = 0.144

[[record]]
molecule = "O=C1NC(=O)C2C1C=CC(C(O)c1ccc([N+](=O)[O-])cc1)N2Nc1ccccn1 (centres undefined)"
measured_attribute = "composite z-score"
numeric_value = -0.0851

[[record]]
molecule = "Cc1ccc(F)cc1S(=O)(=O)N[C@H]1CCN(Cc2ccc(OC(C)C)cc2)C1"
measured_attribute = "composite z-score"
numeric_value = -0.223

[[record]]
molecule = "CCCCN1CC=CC23O[C@@H]4/C=C\\CCCOC(=O)C4[C@H]2C(=O)N(C(CO)C(C)C)[C@@H]3C1=O (some centres undefined)"
measured_attribute = "composite z-score"
numeric_value = -0.256


Please give composite z-score for each item listed below.
1. O=C(NC1CC1)[C@@H]1c2ccccc2C(=O)N(Cc2ccc(OC(F)(F)F)cc2)[C@H]1c1ccc(CO)cc1
2. O=C1C2C=CC(C(O)c3ccc([N+](=O)[O-])cc3)N(Nc3ccccc3F)C2C(=O)N1c1ccccc1 (centres undefined)
3. CCOC(=O)C[C@H]1[C@H](OC(=O)c2ccccc2-c2ccccc2)[C@@H](NC(=O)c2ccc3ccccc3c2)c2cc(OCCCO)ccc2N1C(=O)Cc1ccc(OC)cc1
4. COc1ccc([Si](C)(C)[C@@H]2[C@@H](CC(=O)N(CCO)Cc3ccccc3)O[C@]3(C(=O)N(Cc4ccc(N5C(=O)c6cccc7cccc5c67)cc4)c4ccccc43)[C@H]2C)cc1
5. CC(C)N1C(=O)C[C@@](C(=O)NCCN2CCOCC2)(c2ccc([N+](=O)[O-])cc2)[C@H]1c1ccc(CO)cc1

Result:
1. 0.227
2. 0.164
3. 0.23
4. 0.0547
5. -0.182

Please give composite z-score for each item listed below.
1. O=C(NCc1ccccc1)[C@@H]1c2ccccc2C(=O)N(Cc2ccc(OC(F)(F)F)cc2)[C@H]1c1ccc(CO)cc1
2. COC(=O)[C@@]1(Cc2ccccc2)[C@H]2c3cc(C(=O)N4CCCC4)n(Cc4ccc(OC)c(OC)c4)c3C[C@H]2CN1C(=O)c1ccccc1
3. C=C(COC)/C(=C/C[C@@H](OC(C)=O)c1ccccc1OCCO)c1cnc2ccccc2c1
4. C=CCN1C(=O)[C@@]2(O[C@@H](CCn3cc([C@H](O)c4ccccc4)nn3)[C@H]([Si](C)(C)c3ccc(OC)cc3)[C@H]2C)c2cc(N3C(=O)c4cccc5cccc3c45)ccc21

Result:
1: -0.134; 2: 0.56; 3: 0.3; 4: -0.654

----------
Give composite z-score for every item shown.
Biological target: Calmodulin-1 (Homo sapiens)
Experiment: small molecules binding Ca-loaded calmodulin-1 – biochemical, small-molecule microarray, Cy5-labelled CALM1, plus calcium, artefact control for SMM control-protein annotation, profiling panel (AID 1112);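 also: score merges spot fluorescence with signal to noise from triplicate slides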
Conditions: Cy5-CALM1 binding fluorescence, higher = more signal
Numbers only.

# example entries with known answers
[[record]]
molecule = "CCCCCCc1nc(-c2ccc(-c3ccc(Cl)c(Cl)c3)o2)cc2c1[Si](C(C)C)(C(C)C)OC2"
assay_system = "Calmodulin-1 (Homo sapiens)"
numeric_value = 0.742

[[record]]
molecule = "O=C1C[C@@](C(=O)O)(c2ccc([N+](=O)[O-])cc2)[C@@H](c2ccc(CO)cc2)N1C1CCCCC1"
assay_system = "Calmodulin-1 (Homo sapiens)"
numeric_value = 0.161

[[record]]
molecule = "NC(=O)N1C(=O)C2C(C1=O)C1C=C(CCCO)C2C(C2CC2)N1Cc1sc2ccccc2c1Cl (configuration not stated)"
assay_system = "Calmodulin-1 (Homo sapiens)"
numeric_value = 0.459


Please give composite z-score for each item listed below.
1. Cc1ccc(S[C@]2(C(=O)NCC(F)(F)F)CC(=O)N(Cc3ccccc3C(F)(F)F)[C@@H]2c2ccc(CO)cc2)cc1
2. C=CCC(OC(C)=O)[C@@H]1[C@@H](N(Cc2ccc(-c3cccc(C(F)(F)F)c3)o2)C(=O)c2ccc(-c3ccccc3)cc2)c2cc(OCCCO)ccc2N1C(=O)c1ccc2ccccc2c1 (some centres not stated)
3. CC(C)(C)OC(=O)CC[C@]1(C(=O)NCC(O)CO)N=C(c2ccc(OCCCO)cc2)O[C@H]1c1ccccc1N=[N+]=[N-] (some centres not stated)
4. COC(=O)[C@@]1(Cc2ccc(OC)cc2)[C@H]2c3cc(C(=O)N4CCCC4)n(Cc4c(CO)[nH]cc(C)c4=O)c3C[C@H]2CN1C(=O)c1ccccc1

Result:
1. 0.0313
2. 0.255
3. 0.434
4. 0.593
